Item-by-item account of apparent KD of MS2 coat protein
system: MS2 coat protein; assay: apparent KD of MS2 coat protein; designed switch direction (-1 OFF switch, 1 ON switch): 1; higher = weaker reporter binding; conditions: Eterna round: R95; input ligand: none
Please reply with the bare figure in µM and do not write the unit itself.

Item under review: UCAACUUUUUUUAGUGUGUUGCCAGGUUAACAUGAGGAUCACCCAUGUAAAGUAUAGUGGGAUUAAGUUCGUCUUAA [JR_SHM208A_Sub072] (puzzle: Sensor for hsa-mir-208a) . Reported apparent KD of MS2 coat protein?
0.0939

Item under review: GUAAUACAUGAGGAUCACCCAUGUCAAUGUAGUCGAGGAUAUGGGUAGCUAUGAGGCUUACUAGAAGGCGACGAGC [Same State 1 - Mod of Vinnie Teenbexe v.5] (puzzle: Same State 1) . Reported apparent KD of MS2 coat protein?
0.359

Item under review: AUUUAACAAGCUUUUUGCUCGUCUUAUAAACAUGAGGAUCACCCAUGUAAUAGCGUGAGAGUAAAUAUUUAAAUAAU [JMF 93] (puzzle: Sensor for hsa-mir-208a) . Reported apparent KD of MS2 coat protein?
0.0111

Item under review: AUUAAACAUGAGGAUCACCCAUGUCAACAAUGUCGAGGAUAUGGGCAAAUAAAAUAAGAACCAGAAGGCGAAUAAU [salish99_ss1_r3_076] (puzzle: Same State 1) . Reported apparent KD of MS2 coat protein?
0.303

Item under review: GUUAUACAUGAGGAUCACCCAUGUCAAUGUAGUCGAGGAUAUGGGCAGCUAUGAGGCGUACUAGAAGGCGAGAAGU [Mat - Same State 1 - Mod of JL - D15] (puzzle: Same State 1) . Reported apparent KD of MS2 coat protein?
0.437

Item under review: GGUCCAGCCUGAGCUGGACAAAAGCAUGUACAUGAGGAUCACCCAUGUUCAUGUACAAGCUUUUUGCUCGUCUUAGC [salish99_208a_r3_071] (puzzle: Sensor for hsa-mir-208a) . Reported apparent KD of MS2 coat protein?
0.468

Item under review: UUUUUUUUGACGAGACAAGCUUUUUGAUCACAUGAGGAUCACCCAUGUCUCGUCUUAUUUUUUUUUUUUUUUUUUUU [BA Sensor hsa-mir-208a - 2 - 2] (puzzle: Sensor for hsa-mir-208a) . Reported apparent KD of MS2 coat protein?
0.00754

Item under review: ACAAGCUUUUUGCUCGUCUUCAUGUAAUAACAUGAGGAUCACCCAUGUAACGUUAAAAGUCUCUCGAUAAUAGCUCA [Meechl hsa-mir-208a 1] (puzzle: Sensor for hsa-mir-208a) . Reported apparent KD of MS2 coat protein?
0.348

Item under review: CAGCGCUGCCGGGAGGAUAUGCGGUGAUGGACAUGAGGAUCACCCAUGUUAGCGGUAGCAUUACGGCAGAAGGCCCUGCAGCUGC [Soteed Omei mod 1] (puzzle: Same State 2) . Reported apparent KD of MS2 coat protein?
0.0123

Item under review: ACGCAGCUGGGUGAGGAUAUCGGUGGUAAAACAUGAGGAUCACCCAUGUCCGAAGCUCGGACUUCCGAGAAGGCGCCCAACUGCA [Ercelama] (puzzle: Same State 2) . Reported apparent KD of MS2 coat protein?
0.0709

----------
system: MS2 coat protein; experiment: apparent KD of MS2 coat protein; designed switch direction (-1 OFF switch, 1 ON switch): 1; higher = weaker reporter binding; conditions: input ligand: FMN 200 uM
Binary call on apparent KD of MS2 coat protein: condition met from 200 nM upward, condition not met beneath that.

Below are worked cases with known answers.
Determine whether this sequence has apparent KD of MS2 coat protein no lower than 200 nM: GCGAGCGUACUUGCUACAUGAGGAUCACCCAUGUUUUAUGGACAGGAUAUGGUACCGUUUCGGUACCAGAAGGGUCCACAUGUA [JL SSNG3 3.84] (Eterna round: R96, puzzle: Same State NG 3)
condition not met

Determine whether this sequence has apparent KD of MS2 coat protein no lower than 200 nM: AAUCGUUUGAUAGGAUAUCGCUAUACAUGAGGAUCACCCAUGUUUACCACGCUGGUUUUUCAUACCGAGAAGGAUUCUGAUGAC [salish99_SSNG02_r04_002] (Eterna round: R96, puzzle: Same State NG 2)
condition not met

Determine whether this sequence has apparent KD of MS2 coat protein no lower than 200 nM: AGCCGAGACACAGGAUAUACAUGUAUACAUGAGGAUCACCCAUGUAGCAACACGUGGUAGUGAUUGUAGAAGGGUGCUCGGCGC [Omei SS(NG)2 Cv13] (Eterna round: R96, puzzle: Same State NG 2)
condition not met

Further cases:
Determine whether this sequence has apparent KD of MS2 coat protein no lower than 200 nM: GCUGGAAACCACAUGAGGAUCACCCAUGUUCCGGAAACGGCGCAGGAUAUCUGUCCGAAAAGGUCAGAGAAGGGUGGAACCAGC [Fiskers NG3ss - 81] (Eterna round: R96, puzzle: Same State NG 3)
condition met

Determine whether this sequence has apparent KD of MS2 coat protein no lower than 200 nM: GGUGGGUUACUACCAACACAUGAGGAUCACCCAUGUUUUGGGAAGGAUAUGGUACCUAUUUGGUACCAGAAGGUCCGGUUGGUG [salish99_SSNG3_r04_704] (Eterna round: R96, puzzle: Same State NG 3)
condition not met

Determine whether this sequence has apparent KD of MS2 coat protein no lower than 200 nM: AGCUAUCGAAAACGAUAGCAUAAGCAUGUACAUGAGGAUCACCCAUGUCAUGUACAAGCUUUUUGCUCGUCUUAAAA [JL zipper 27] (Eterna round: R96, puzzle: Sensor for hsa-mir-208a)
condition met

Determine whether this sequence has apparent KD of MS2 coat protein no lower than 200 nM: GUACAGAUUAUAGGAUAUCACGUCGUUUAGACGUGAGAAGGAUAAUCACACAUGAAUAUUAAUACAUGAGGAUCACCCAUGUAC [SSNG1/17-A3] (Eterna round: R96, puzzle: Same State NG 1)
condition not met

Determine whether this sequence has apparent KD of MS2 coat protein no lower than 200 nM: UUAAUGAAGUAAGGAUAUACAUGAGGAUUUCUCGUAGAAGGUACUAUACAUGAGGAUCACCCAUGUGCCGGUCCGUAGACUGGA [JL SSNG1 1.05] (Eterna round: R96, puzzle: Same State NG 1)
condition met

----------
test system: K4 kissing-loop RNA reporter; assay: apparent KD of K4 kissing-loop reporter; higher = weaker reporter binding; details: Eterna round: R107; input ligand: FMN 200 uM
Binary call on apparent KD of K4 kissing-loop reporter: condition met from 200 nM upward, condition not met beneath that.

Determine whether this sequence has apparent KD of K4 kissing-loop reporter no lower than 200 nM: GCGCGUCAUGUCGGCGGUGACUACGCCGAUACCAGCCGGGAAACCGGCCCUUGGCAGCGGCGCGCCGGAGUGAUGUUCCGACAGA [#2 Exclusion - Theophylline A Attempt #3 (HarryS)]
condition not met

Determine whether this sequence has apparent KD of K4 kissing-loop reporter no lower than 200 nM: AUAAUAUGAGUGAUGUUCAUGUAAGCUGAAGGAGCGGACGAAAGUCCAGGUAGGUCGCAGCGUUCCUUUACCUCAUGAGAAGGAG [KL_SSArg-A1 #analogue]
condition not met

Determine whether this sequence has apparent KD of K4 kissing-loop reporter no lower than 200 nM: UCUCAAGCACAGUGAUGUUGUGCUUGGGAAGGAGCGCGUGGGAACGCAGGUAGGUCGCCCGGUAAAUCGCGUCAAUGCUAGAGGC [Arg A Ex t5]
condition not met

Determine whether this sequence has apparent KD of K4 kissing-loop reporter no lower than 200 nM: CAACCGUAACACGAUACCAGCCUAGAAGCCAGUGAUGUUGGCCUUUUUUCGGAAAUGAAAGGCCCUUGGCAGCGUGGAUAAAAUG [Lelabiised]
condition met

Determine whether this sequence has apparent KD of K4 kissing-loop reporter no lower than 200 nM: GAUUGUGAUGGAAACAUCGCAAUCUCUGAAGGAGCGCGUGAAAACGCAGGUAGGUCGCAGGACGACUAUGACAGUGAUGUUGUCG [Ex Arginine A K4 3]
condition not met

We next turn to a different sequence, shown below.
Determine whether this sequence has apparent KD of K4 kissing-loop reporter no lower than 200 nM: AGAGGAAAUAGAAGGAGCGGCGCCAGUGAUGUUGGAUGCCGCGGGUGAAUCAGGUCAUAGUGCCAGGUAGGUCGCUAUUUCAGCG [Larebeve]
condition not met

----------
Item-by-item account of apparent KD of K4 kissing-loop reporter
system: K4 kissing-loop RNA reporter; experiment: apparent KD of K4 kissing-loop reporter; higher = weaker reporter binding; conditions: Eterna round: R107; input ligand: arginine 13.2 mM;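 note: bound reporter read as fluorescence of individual clusters on recovered sequencing chips by microscopy, with normalized cluster intensities fitted with a binding model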
Please reply with the bare figure in nM and do not write the unit itself.

Item under review: AGUGAUGUAGUGUGUUGUUUGUGAAGUGAUCGAGGACCGGUACGGCCGCCACUCGAGUGAUGAGUGAGUGAUGUUUGUUUAGUGG [#18 K4 Tryptophan A Same State] . Reported apparent KD of K4 kissing-loop reporter?
283

Item under review: AUACGUUUAAGUGAUACCAGACUGGUGAGUGAUGUUUACCAAUAAAUUAAAUUAUUAGCUGUCCCUUGGCAGCACAGUUUAUUUA [JR_ExcTheophyB_Sub005] . Reported apparent KD of K4 kissing-loop reporter?
330

Item under review: GCGCGUCAUGUCGGCGGUGACUACGCCGAUACCAGCCGGGAAACCGGCCCUUGGCAGCGGCGCGCCGGAGUGAUGUUCCGACAGA [#2 Exclusion - Theophylline A Attempt #3 (HarryS)] . Reported apparent KD of K4 kissing-loop reporter?
205

Item under review: AACGGCCAGUCGGCCGCCACUCAAAGCAGUGAUGUUGCUAACUUUCUAAAAGAGUGAUGUUCUUAGAGGACCGGGACUAAUGUAA [Exclusion Tryptophan B GF 2] . Reported apparent KD of K4 kissing-loop reporter?
147

Item under review: AGGAGUGAUGUUCCUACAUAGACGGUCCAACGAGGACCGGUACGGCCGCCACUCGCGACCCAGUGAUGUUGGGAUUCACCGUACA [Exclusion Tryptophan A Gf 14] . Reported apparent KD of K4 kissing-loop reporter?
753

Further cases:
Item under review: AUAAUAUGAGUGAUGUUCAUGUAAGCUGAAGGAGCGGACGAAAGUCCAGGUAGGUCGCAGCGUUCCUUUACCUCAUGAGAAGGAG [KL_SSArg-A1 #analogue] . Reported apparent KD of K4 kissing-loop reporter?
184
